The reported measurements were obtained from patent US12344610B2.

We begin with a simple list: items and their reported pEC50.
Test system: HEK293 cells overexpressing APOL1 G2
measurementProtocol: APOL1 G2 HEK293 cell rescue assay (reversal of cell death caused by overexpression of APOL1)
Type: cell-based
conditionContext: Homo sapiens, HEK293, HEK293 overexpressing APOL1 G2; geometric mean of at least 2 assay runs; † = single assay run
Conceptually, pEC50 converts a concentration in mol/L into minus its log10.

Known pEC50 results, listed for orientation:
CP(C)(=O)C1(c2ccc(OCCN3CCC4(CC3)C(=O)Nc3ccc(Cl)cc34)cc2)CC1 [Compound 343] ... 6.79
CC(=O)N(C)CCS(=O)(=O)c1ccc(OCCN2CCC3(CC2)C(=O)Nc2ccc(Cl)cc23)cc1 [Compound 193] ... 6.81
CNC(=O)N1CCCc2cc(OCCN3CCC4(CC3)C(=O)Nc3ccc(Cl)cc34)ccc21 [Compound 60] ... 7.20
CC(COc1ccc(S(C)(=O)=O)cc1)N1CCC2(CC1)C(=O)N(C1CC(O)C1)c1ccc(Cl)cc12 (mixture of isomers) [Compound 205] ... 6.33
CN1C(=O)C2(CCN(CCOc3ccc(C4(S(C)(=O)=O)COC4)cc3)CC2)c2cc(C#N)ccc21 [Compound 251] ... 6.90
O=C1Nc2ccc(Cl)cc2C12CCN(CCOc1cnc(C3(O)CCC3)nc1)CC2 [Compound 430] ... 7.14
[2H]C([2H])([2H])N1C(=O)C2(CCN(CCOc3ccc(C4(S(C)(=O)=O)CCC4)cc3)CC2)c2cc(Cl)ccc21 [Compound 415] ... 7.69
N#Cc1ccc2c(c1)C1(CCN(CCOc3ccc4c(c3)CCN3C(=O)NCC43)CC1)C(=O)N2 (stereo not drawn) [Compound 118] ... 6.37
CC1(S(=O)(=O)c2ccc(OCCN3CCC4(CC3)C(=O)Nc3ccc(Cl)cc34)cn2)COC1 [Compound 158] ... 7.18
O=C1NCC2c3ccc(OCCN4CCC5(CC4)C(=O)Nc4ccc(Cl)cc45)cc3CCN12 (stereo not drawn) [Compound 115] ... 7.02

Per the records, this compound ( CN(C)C(=O)c1ccc(OCCN2CCC3(CC2)C(=O)Nc2ccc(Cl)cc23)cc1F [Compound 230] ) has pEC50 equal to 7.01

Per the records, this compound ( COCCN1C(=O)C2(CCN(CCOc3ccc(S(C)(=O)=O)cc3)CC2)c2cc(Cl)ccc21 [Compound 20] ) has pEC50 equal to 6.53

Per the records, this compound ( C[C@]1(O)C[C@@H](n2ncc3cc(OCCN4CCC5(CC4)C(=O)Nc4ccc(C#N)cc45)cnc32)C1 (single isomer, unassigned) [Compound 437] ) has pEC50 equal to 6.95

Per the records, this compound ( C[C@]1(O)C[C@@H](N2C(=O)CCc3cc(OCCN4CCC5(CC4)C(=O)Nc4ccc(OC(F)F)cc45)cnc32)C1 [Cmpd 325] ) has pEC50 equal to 7.06

Per the records, this compound ( CC(c1ccc(OCCN2CCC3(CC2)C(=O)Nc2ccc(Cl)cc23)cc1)S(C)(=O)=O (stereo not drawn) [Compound 38] ) has pEC50 equal to 7.23

###

Test system: Trypanosoma brucei Lister 427 VSG221 with APOL1 G1 recombinant protein
measurementProtocol: APOL1 G1 trypanosome cell rescue assay (Example B5)
Assay type: cell-based
conditionContext: Trypanosoma brucei, 20 h, read-out: APOL1 G1 Trypanosome Rescue EC50, Trypanosoma brucei Lister 427 VSG221 with APOL1 G1 recombinant protein, 20 hours, CellTiter-Glo; geometric mean of at least 2 assay runs; † = single assay run
quantityName: pEC50
Conceptually, pEC50 converts a concentration in mol/L into minus its log10.

Known pEC50 results, listed for orientation:
O=C1Nc2ccc(Cl)cc2C12CCN(CCOc1ccc3nccnc3c1)CC2 [Compound 62] ... 6.41
CS(=O)(=O)C1(c2ccc(OCCN3CCC4(CC3)C(=O)N(CCO)c3ccc(Cl)cc34)cc2)COC1 [Compound 160] ... 6.81

Per the records, this compound ( CC(O)c1ncc(OCCN2CCC3(CC2)C(=O)Nc2ccc(Cl)cc23)cn1 (single isomer, unassigned) [Compound 285] ) has pEC50 equal to 6.13

Per the records, this compound ( C[C@]1(O)C[C@@H](N2C(=O)NCc3cc(OCCN4CCC5(CC4)C(=O)Nc4ccc(Cl)cc45)cnc32)C1 [Compound 356] ) has pEC50 equal to 6.95

Per the records, this compound ( CS(=O)(=O)C1(c2ncc(OCCN3CCC4(CC3)C(=O)Nc3ccc(OC(F)F)cc34)cn2)CC1 [Compound 6] ) has pEC50 equal to 6.33

Per the records, this compound ( O=C1Nc2ccc(Cl)cc2C12CCN(CCOc1ccc(S(=O)(=O)CCO)cc1)CC2 [Compound 198] ) has pEC50 equal to 6.85

Per the records, this compound ( CS(=O)(=O)c1ccc(OCCN2CCC3(CC2)C(=O)N(CCO)c2ccc(Br)cc23)cc1 [Compound 24] ) has pEC50 equal to 6.12

Per the records, this compound ( CS(=O)(=O)C1(c2ccc(OCCN3CCC4(CC3)C(=O)Nc3ccc(Cl)cc34)cc2)CC2(COC2)C1 [Compound 182] ) has pEC50 equal to 6.32

Per the records, this compound ( CC1(O)CN(c2nccc3cc(OCCN4CCC5(CC4)C(=O)Nc4ccc(Cl)cc45)cnc23)C1 [Compound 306] ) has pEC50 equal to 7.29

Per the records, this compound ( CS(=O)(=O)c1ccc(OCCN2CCC3(CC2)C(=O)Nc2ccc(Cl)cc23)cc1C(F)F [Compound 197] ) has pEC50 equal to 6.71

Per the records, this compound ( COC(=O)C1(S(=O)(=O)c2ccc(OCCN3CCC4(CC3)C(=O)Nc3ccc(Cl)cc34)cc2)CC1 [Compound 91] ) has pEC50 equal to 7.08

Per the records, this compound ( CS(=O)(=O)C1(c2ccc(OCCN3CCC4(CC3)C(=O)Nc3ccc(C#N)cc34)cc2C(F)(F)F)COC1 [Compound 166] ) has pEC50 equal to 6.95

Per the records, this compound ( C[C@]1(O)C[C@@H](n2cnc3cc(OCCN4CCC5(CC4)C(=O)Nc4ccc(Cl)cc45)cnc32)C1 [Compound 367] ) has pEC50 equal to 6.49

Per the records, this compound ( C[C@@H](COc1ccc2c(cnn2C)c1)N1CCC2(CC1)C(=O)Nc1ccc(Cl)cc12 (single isomer, unassigned) [Compound 211] ) has pEC50 equal to 6.28

Per the records, this compound ( CS(=O)(=O)c1ccc(OCCN2CCC3(CC2)C(=O)Nc2ccc(Cl)cc23)cc1C(F)(F)F [Compound 108] ) has pEC50 equal to 7.51
